Entry source: ChEMBL document CHEMBL4007424

Molecular target: Sigma non-opioid intracellular receptor 1 (Cavia porcellus) (UniProt Q60492)
Sequence (Q60492 whole entry): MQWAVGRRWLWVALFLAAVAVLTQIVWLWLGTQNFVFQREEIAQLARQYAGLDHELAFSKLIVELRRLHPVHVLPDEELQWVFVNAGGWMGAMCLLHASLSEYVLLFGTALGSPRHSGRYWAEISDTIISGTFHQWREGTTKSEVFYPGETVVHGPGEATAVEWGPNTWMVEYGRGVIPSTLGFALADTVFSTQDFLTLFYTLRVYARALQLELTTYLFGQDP
Assay: Displacement of [3H]-(+)-pentazocine from sigma1-type […] receptor in guinea pig cortex membranes at 1 uM after 120 mins by solid scintillation counting
Format: cell membranes
# inhibition listing for each entry below
endpoint.label: inhibition (%)

CS(=O)(=O)N1CCN(C(=O)Cc2ccc(Cl)c(F)c2)[C@@H]2[C@@H](N3CC[C@H](O)C3)CCC[C@@H]21: 12
CS(=O)(=O)N1CCN(C(=O)Cc2ccc(F)c(Cl)c2)[C@@H]2[C@@H](N3CC[C@H](O)C3)CCC[C@@H]21: 3
COC(=O)N1CCN(C(=O)Cc2ccc(Cl)c(Cl)c2)[C@@H]2[C@@H](N3CC[C@H](O)C3)CCC[C@@H]21: 0
COC(=O)N1CCN(C(=O)Cc2ccc(Cl)c(F)c2)[C@@H]2[C@@H](N3CC[C@H](O)C3)CCC[C@@H]21: 0
CC(C)OC(=O)CN1CCN(C(=O)Cc2ccc(Cl)c(Cl)c2)[C@@H]2[C@@H](N3CCCC3)CCC[C@@H]21: 0
CN(C)S(=O)(=O)N1CCN(C(=O)Cc2ccc(Cl)c(Cl)c2)[C@@H]2[C@@H](N3CCCC3)CCC[C@@H]21: 0
COC(=O)N1CCN(C(=O)Cc2ccc(Cl)cc2)[C@@H]2[C@@H](N3CC[C@H](O)C3)CCC[C@@H]21: 21

====

Target: Kappa-type opioid receptor (Cavia porcellus, UniProt P41144)
Sequence (P41144 whole entry): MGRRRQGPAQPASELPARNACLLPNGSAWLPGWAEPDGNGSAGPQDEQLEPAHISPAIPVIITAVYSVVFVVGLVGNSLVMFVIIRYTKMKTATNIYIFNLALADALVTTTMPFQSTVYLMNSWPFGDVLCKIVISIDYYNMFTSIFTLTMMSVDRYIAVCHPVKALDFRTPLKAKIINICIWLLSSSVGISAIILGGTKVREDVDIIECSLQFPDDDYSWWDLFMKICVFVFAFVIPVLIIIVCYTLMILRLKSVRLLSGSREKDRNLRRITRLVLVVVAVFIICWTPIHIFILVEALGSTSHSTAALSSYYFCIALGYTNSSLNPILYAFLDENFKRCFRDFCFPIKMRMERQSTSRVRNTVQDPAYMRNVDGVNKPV
Assay: Displacement of [3H]U-69,593 from kappa-type opioid receptor in guinea pig brain membranes after 120 mins by solid scintillation counting
Type: cell membranes, Membrane
endpoint.label: Ki (nM)

CS(=O)(=O)N1CCN(C(=O)Cc2ccc(Cl)c(Cl)c2)[C@@H]2[C@@H](N3CC[C@H](O)C3)CCC[C@@H]21: 0.63
CN(C)S(=O)(=O)N1CCN(C(=O)Cc2ccc(Cl)c(Cl)c2)[C@@H]2[C@@H](N3CCCC3)CCC[C@@H]21: 0.95
COC(=O)N1CCN(C(=O)Cc2ccc(Cl)c(F)c2)[C@@H]2[C@@H](N3CC[C@H](O)C3)CCC[C@@H]21: 1.8
CS(=O)(=O)N1CCN(C(=O)Cc2ccc(Cl)c(F)c2)[C@@H]2[C@@H](N3CC[C@H](O)C3)CCC[C@@H]21: 2.1
CS(=O)(=O)N1CCN(C(=O)Cc2ccc(F)c(Cl)c2)[C@@H]2[C@@H](N3CC[C@H](O)C3)CCC[C@@H]21: 1.7
COC(=O)N1CCN(C(=O)Cc2ccc(Cl)cc2)[C@@H]2[C@@H](N3CC[C@H](O)C3)CCC[C@@H]21: 0.65
COC(=O)N1CCN(C(=O)Cc2cccc(Cl)c2)[C@@H]2[C@@H](N3CC[C@H](O)C3)CCC[C@@H]21: 1.7

====

Target: Mu-type opioid receptor (Cavia porcellus)
Assay: Displacement of [3H]DAMGO from mu-type opioid receptor in guinea pig brain membranes at 1 uM after 120 mins by solid scintillation counting
Assay type: cell membranes
Conditions: Membrane
endpoint.label: inhibition (%)

O=C(Cc1ccc(Cl)cc1)N1CCN(S(=O)(=O)Cc2ccon2)[C@H]2CCC[C@H](N3CC[C@H](O)C3)[C@H]21: 0
COC(=O)N1CCN(C(=O)Cc2ccc(F)c(F)c2)[C@@H]2[C@@H](N3CC[C@H](O)C3)CCC[C@@H]21: 4
O=C(Cc1ccc(Cl)c(F)c1)N1CCN(S(=O)(=O)Cc2ccon2)[C@H]2CCC[C@H](N3CC[C@H](O)C3)[C@H]21: 6
CS(=O)(=O)N1CCN(C(=O)Cc2ccc(F)c(Cl)c2)[C@@H]2[C@@H](N3CC[C@H](O)C3)CCC[C@@H]21: 0
COC(=O)N1CCN(C(=O)Cc2ccc(F)c(Cl)c2)[C@@H]2[C@@H](N3CC[C@H](F)C3)CCC[C@@H]21: 0
CC(C)OC(=O)CN1CCN(C(=O)Cc2ccc(Cl)c(Cl)c2)[C@@H]2[C@@H](N3CCCC3)CCC[C@@H]21: 7
CNC(=O)C(=O)N1CCN(C(=O)Cc2ccc(Cl)c(Cl)c2)[C@@H]2[C@@H](N3CCCC3)CCC[C@@H]21: 12
COC(=O)N1CCN(C(=O)Cc2ccc(Cl)c(Cl)c2)[C@@H]2[C@@H](N(C)C)CCC[C@@H]21: 0
CC(C)NC(=O)N1CCN(C(=O)Cc2ccc(Cl)c(Cl)c2)[C@@H]2[C@@H](N3CCCC3)CCC[C@@H]21: 0
COC(=O)N1CCN(C(=O)Cc2ccc(Cl)c(Cl)c2)[C@@H]2[C@@H](N3CC[C@@H](O)C3)CCC[C@@H]21: 5
